Data origin: the supplement of paper PMC10567573

B1: TRIM55 (parent)
chain: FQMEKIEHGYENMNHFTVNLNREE

variants of: B1; experiment: protein stability index of a GFP-peptide fusion (GPS, HEK-293T) (PSI 1-6); higher = more stable; conditions: c terminus: a fixed tail appended;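 note: lentivirally expressed fusions sorted by FACS into six bins by GFP to DsRed ratio, PSI derived from sequencing read proportions per bin multiplied by bin number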
quantity.kind: protein stability index
Lab note: record the figure alone, no unit after it.

Per the records, this variant ( F1L ) has protein stability index equal to 4.05

Kindly note the recorded protein stability index for N21R , which is 2.51

protein stability index recorded for this variant, H8T , is 2.73
